Origin of values: ChEMBL document CHEMBL2380290

Molecular target: Neuronal acetylcholine receptor; alpha4/beta2 (Homo sapiens, UniProt P17787+P43681)
Sequence (P17787 whole entry): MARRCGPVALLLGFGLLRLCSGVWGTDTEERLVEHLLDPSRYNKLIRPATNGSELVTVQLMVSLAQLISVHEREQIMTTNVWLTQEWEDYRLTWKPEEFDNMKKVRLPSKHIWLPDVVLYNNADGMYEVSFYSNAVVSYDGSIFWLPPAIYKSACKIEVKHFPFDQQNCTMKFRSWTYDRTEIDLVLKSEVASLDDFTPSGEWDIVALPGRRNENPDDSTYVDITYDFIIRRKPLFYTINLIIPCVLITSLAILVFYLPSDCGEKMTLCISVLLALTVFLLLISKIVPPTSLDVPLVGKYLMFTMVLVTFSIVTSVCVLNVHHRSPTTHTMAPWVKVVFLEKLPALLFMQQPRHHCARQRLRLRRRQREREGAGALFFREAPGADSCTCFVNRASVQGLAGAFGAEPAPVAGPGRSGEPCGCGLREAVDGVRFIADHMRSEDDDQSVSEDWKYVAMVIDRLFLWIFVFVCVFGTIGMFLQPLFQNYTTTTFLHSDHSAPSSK
Sequence (P43681 whole entry): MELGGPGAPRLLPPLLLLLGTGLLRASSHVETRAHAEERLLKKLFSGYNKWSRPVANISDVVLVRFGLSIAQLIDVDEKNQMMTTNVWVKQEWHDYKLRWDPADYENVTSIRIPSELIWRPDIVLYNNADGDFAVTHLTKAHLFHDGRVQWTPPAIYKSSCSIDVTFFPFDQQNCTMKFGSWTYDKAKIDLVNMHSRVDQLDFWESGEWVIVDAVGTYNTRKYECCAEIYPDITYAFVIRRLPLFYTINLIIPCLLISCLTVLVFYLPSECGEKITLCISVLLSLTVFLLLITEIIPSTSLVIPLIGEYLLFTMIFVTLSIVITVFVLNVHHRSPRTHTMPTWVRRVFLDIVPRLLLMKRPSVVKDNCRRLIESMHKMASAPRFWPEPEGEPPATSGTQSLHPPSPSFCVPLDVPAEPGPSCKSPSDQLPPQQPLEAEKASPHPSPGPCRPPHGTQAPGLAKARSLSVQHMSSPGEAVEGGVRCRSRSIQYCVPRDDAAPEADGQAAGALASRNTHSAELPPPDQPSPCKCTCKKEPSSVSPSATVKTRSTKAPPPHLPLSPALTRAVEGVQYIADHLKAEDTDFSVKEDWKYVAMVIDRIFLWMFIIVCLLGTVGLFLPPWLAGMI
Assay: Displacement of [3H]cytisine from human alpha4beta2 nAChR overexpressed in human SHEP cells after 75 mins by liquid scintillation spectrometric analysis
Assay type: cell-based
reported-metric: IC50 (µM)
State the answer as a number, implicitly in µM.

Exercise: Annotate the compound CN1CCC[C@H]1COC(=O)c1ccc(Br)cc1 with its measured IC50.
Key: 0.0784

Exercise: Annotate the compound CN1CCC[C@H]1COC(=O)c1ccc(Cl)cc1 with its measured IC50.
Key: 0.0394

Exercise: Annotate the compound CN1CCC[C@H]1COC(=O)c1ccc(Cl)nc1 with its measured IC50.
Key: 0.528

Exercise: Annotate the compound CN1CCC[C@H]1COC(=O)c1ccc(OCc2ccccc2)nc1 with its measured IC50.
Key: 0.166

Exercise: Annotate the compound CN1CCC[C@H]1COC(=O)c1cccc(N)c1 with its measured IC50.
Key: 0.0284

Exercise: Annotate the compound CN1CCC[C@H]1COC(=O)c1cnc2ccccc2c1 with its measured IC50.
Key: 0.759

Exercise: Annotate the compound CN1CCC[C@H]1COC(=O)c1cccc([N+](=O)[O-])c1 with its measured IC50.
Key: 1.61

Exercise: Annotate the compound CN1CCC[C@H]1COC(=O)c1ccc(OCc2ccccc2)cc1 with its measured IC50.
Key: 0.0042

Exercise: Annotate the compound CN1CCC[C@H]1COC(=O)c1ccccc1 with its measured IC50.
Key: 0.0819
